- Tested on: HCT-116
- test.protocol: In vitro cytotoxicity, colon
- Assay type: cell-based
- condition.summary: Homo sapiens, HCT-116, read-out: In vitro cytotoxicity IC50, Colon HCT-116
value.kind: pIC50
Keep it numeric: pIC50 is minus log10 of the concentration in mol/L.

Q: Using the record for C[Si](C)(C)OC[C@H]1O[C@@H](n2cnc(N)nc2=O)[C@@H](O[Si](C)(C)C)C1O[Si](C)(C)C (stereo partly shown) , report its pIC50.
A: 5.97
